Cited source: patent US20200308290A1

Target: T1, human CD25 (human, UniProt P01589 22-213, limits assumed)
T1 construct: Recombinant soluble human CD25, coated on plates (ELISA) or injected over captured antibody (BIAcore); also called hCD25; IL2-R alpha
T1 sequence (looked up): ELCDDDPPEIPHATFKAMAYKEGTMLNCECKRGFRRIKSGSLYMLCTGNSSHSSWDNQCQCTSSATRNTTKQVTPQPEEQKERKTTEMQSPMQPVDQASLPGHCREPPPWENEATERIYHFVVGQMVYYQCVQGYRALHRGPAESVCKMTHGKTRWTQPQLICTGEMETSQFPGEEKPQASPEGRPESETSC
Experiment: competition ELISA vs biotinylated daclizumab, fold over wild type
Assignment: determine reported ELISA fold improvement for the given binders.
Respond numerically; units are fold and should not be typed.

// ELISA fold improvement lookup, binder = Variant C34 (antibody, V domains shown, Isotype as printed: G2M3.QL) VH: QVQLVQSGAEVKKPGSSVKVSCKASGYTFTSYRMHWVRQAPGQGLEWMGYIKPSRGYTEYNQKFKDKATITADESTNTAYMELSSLRSEDTAVYYCARGGGVFDYWGQGTLVTVSS VL: DIQMTQSPSTLSASVGDRVTITCSASSKISYMHWYQQKPGKAPKLLIYTTSDLASGVPARFSGSGSGTEFTLTISSLQPDDFATYYCHQRSTYPLTFGQGTKVEVK , result: 7.8

// ELISA fold improvement lookup, binder = Variant C37 (antibody, name in Kabat numbering, V domains shown, Isotype as printed: G2M3.QL) VH: QVQLVQSGAEVKKPGSSVKVSCKASGYTFTSYRMHWVRQAPGQGLEWMGYIKPSSGYTEYNQKFKDKATITADESTNTAYMELSSLRSEDTAVYYCARGGGVFDYWGQGTLVTVSS VL: DIQMTQSPSTLSASVGDRVTITCSASSSISYMHWYQQKPGKAPKLLIYTTSELASGVPARFSGSGSGTEFTLTISSLQPDDFATYYCHQRSTYPLTFGQGTKVEVK , result: 4.1

// ELISA fold improvement lookup, binder = Variant C35 (antibody, name in Kabat numbering, V domains shown, Isotype as printed: G2M3.QL) VH: QVQLVQSGAEVKKPGSSVKVSCKASGYTFTSYRMHWVRQAPGQGLEWMGYIKPSRGYTEYNQKFKDKATITADESTNTAYMELSSLRSEDTAVYYCARGGGVFDYWGQGTLVTVSS VL: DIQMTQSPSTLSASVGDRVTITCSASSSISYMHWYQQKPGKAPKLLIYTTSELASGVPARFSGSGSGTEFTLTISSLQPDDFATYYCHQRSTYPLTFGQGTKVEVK , result: 7
